Target: Sushi domains (SD1/2) protein
Experiment: Fluorescence polarization (FP) competition assay with AJAP-1probe, calculated Ki
Assay type: binding
Settings: Table 6, elongation and truncation scan of PIANP binding epitope; read-out: Ki (nM) mean ± SEM
Residues, ends and D or L forms follow the SMILES beside them.
Each item that follows carries a reported Ki.
Please state the figure in nM; there is no need to write the unit.

These recorded examples may help you get a feel for the data.
molecule | assay_readout | numeric_result
CC[C@H](C)[C@H](NC(=O)[C@H](C)NC(=O)[C@H](Cc1c[nH]c2ccccc12)NC(=O)[C@@H]1CCCN1C(C)=O)C(=O)N[C@H](C(=O)N[C@@H](Cc1c[nH]c2ccccc12)C(=O)NCC(=O)N1CCC[C@H]1C(=O)N[C@H](C(=O)N[C@H](C(=O)N[C@@H](CO)C(=O)N[C@@H](CCCNC(=N)N)C(=O)N[C@@H](CCC(=O)O)C(=O)N[C@@H](CC(=O)O)C(=O)NCC(=O)NCC(N)=O)C(C)C)[C@@H](C)O)C(C)C (Ac-PWAIVWGPTVSREDGG-NH2) | Ki | 561
CC[C@H](C)[C@H](NC(=O)[C@H](C)NC(=O)[C@H](Cc1c[nH]c2ccccc12)NC(=O)[C@@H]1CCCN1C(C)=O)C(=O)N[C@H](C(=O)N[C@@H](Cc1c[nH]c2ccccc12)C(=O)NCC(=O)N1CCC[C@H]1C(=O)N[C@H](C(=O)N[C@H](C(=O)N[C@@H](CO)C(=O)N[C@@H](CCCNC(=N)N)C(=O)N[C@@H](CCC(=O)O)C(=O)N[C@@H](CC(=O)O)C(=O)NCC(=O)NCC(=O)N[C@@H](CC(=O)O)C(N)=O)C(C)C)[C@@H](C)O)C(C)C (Ac-PWAIVWGPTVSREDGGD-NH2) | Ki | 716

We next turn to a different molecule, shown below.
Q: Provide measured Ki value, entry: CC[C@H](C)[C@H](NC(=O)[C@H](C)NC(=O)[C@H](Cc1c[nH]c2ccccc12)NC(=O)[C@@H]1CCCN1C(C)=O)C(=O)N[C@H](C(=O)N[C@@H](Cc1c[nH]c2ccccc12)C(=O)NCC(=O)N1CCC[C@H]1C(N)=O)C(C)C (Ac-PWAIVWGP-NH2)
A: 597

----------
Target: Sushi domains (SD1/2) protein
Test: Fluorescence polarization (FP) competition assay with AJAP-1probe, calculated Ki
Format: binding
Settings: purified peptides; read-out: Ki
Non-standard residues stand in square brackets, D forms with d. Residues, ends and D or L forms follow the SMILES beside them. 2Nal = N[C@@H](Cc1ccc2ccccc2c1)C(=O)O
Each item that follows carries a reported pKi.
Just so you know, pKi here is -log10 of the concentration in molar units; reply with that number alone.

Q: Provide measured pKi value, entry: CC(=O)N[C@@H](CCC(=O)O)C(=O)N[C@@H](CC(=O)O)C(=O)N[C@@H](CC(=O)O)C(=O)N[C@@H](CO)C(=O)N[C@@H](Cc1ccc2ccccc2c1)C(=O)N[C@H](C(=O)N[C@@H](Cc1c[nH]c2ccccc12)C(=O)N[C@@H](Cc1c[nH]c2ccccc12)C(=O)NCC(=O)NCC(=O)N[C@@H](C)C(=O)N[C@@H](CC(=O)O)C(=O)N[C@H](C(=O)N[C@@H](CC(=O)O)C(N)=O)[C@@H](C)O)C(C)C (Ac-EDDS[2Nal]VWWGGADTD-NH2)
A: 7.37

Q: Provide measured pKi value, entry: CC[C@H](C)[C@H](NC(=O)[C@H](C)NC(=O)[C@H](Cc1c[nH]c2ccccc12)NC(=O)[C@@H]1CCCN1C(C)=O)C(=O)N[C@H](C(=O)N[C@@H](Cc1c[nH]c2ccccc12)C(=O)NCC(=O)N1CCC[C@H]1C(=O)N[C@H](C(=O)N[C@H](C(=O)N[C@@H](CO)C(=O)N[C@@H](CCCNC(=N)N)C(=O)N[C@@H](CCC(=O)O)C(=O)N[C@@H](CC(=O)O)C(=O)NCC(N)=O)C(C)C)[C@@H](C)O)C(C)C [Peptide 14] (Ac-PWAIVWGPTVSREDG-NH2)
A: 6.33

----------
Each item that follows carries a reported Ki.
Target: Sushi domains (SD1/2) protein
Assay: Fluorescence polarization (FP) competition assay with AJAP-1probe, calculated Ki
Format: binding
Settings: Table 16, ncAAs incorporated peptides; read-out: Ki (nM) mean ± SEM
Experimental: Fluorescence polarization (FP). FP assay was employed to determine the binding affinity of peptides in flat bottom black 384-well plates (Corning Life Science) using a Safire2 plate reader (Tecan). […] The fluorescence polarization values were measured using excitation/emission wavelengths of 530/580 nm. The instrumental Z-factor was adjusted to obtain the maximum fluorescence intensity and the G-factor was calibrated to give an initial millipolarization value of 20 mP. […]
Non-standard residues stand in square brackets, D forms with d. Phe(4-tBu) = CC(C)(C)c1ccc(C[C@H](N)C(=O)O)cc1; Phe(4-NH2) = Nc1ccc(C[C@H](N)C(=O)O)cc1; Phe(4-F) = N[C@@H](Cc1ccc(F)cc1)C(=O)O
Please state the figure in nM; there is no need to write the unit.

These recorded examples may help you get a feel for the data.
substance | Ki (nM)
EDDS(Buphe)VWWGGADTD (Ac-EDDS[Phe(4-tBu)]VWWGGADTD-NH2) | 269
EDDS(Fphe)VWWGGADTD (Ac-EDDS[Phe(4-F)]VWWGGADTD-NH2) | 117
EDDS(Aphe)VWWGGADTD (Ac-EDDS[Phe(4-NH2)]VWWGGADTD-NH2) | 184

We next turn to a different substance, shown below.
Q: GET Ki where system = Sushi domains (SD1/2) protein and item = EDDSDVWW(Aphe)GADTD (Ac-EDDSDVWW[Phe(4-NH2)]GADTD-NH2; SMILES CC(=O)N[C@@H](CCC(=O)O)C(=O)N[C@@H](CC(=O)O)C(=O)N[C@@H](CC(=O)O)C(=O)N[C@@H](CO)C(=O)N[C@@H](CC(=O)O)C(=O)N[C@H](C(=O)N[C@@H](Cc1c[nH]c2ccccc12)C(=O)N[C@@H](Cc1c[nH]c2ccccc12)C(=O)N[C@@H](Cc1ccc(N)cc1)C(=O)NCC(=O)N[C@@H](C)C(=O)N[C@@H](CC(=O)O)C(=O)N[C@H](C(=O)N[C@@H](CC(=O)O)C(N)=O)[C@@H](C)O)C(C)C)
A: 102

----------
Biological target: Sushi domains (SD1/2) protein
Assay: Fluorescence polarization (FP) competition assay with AJAP-1probe, calculated Ki
Assay type: binding
Details: Table 3, SPOT hit validation and previously reported peptides; read-out: Ki (nM) mean ± SEM
Residues, ends and D or L forms follow the SMILES beside them.
assay_readout: Ki (nM)
Please state the figure in nM; there is no need to write the unit.

compound | Ki (nM)
CC(=O)N[C@@H](CC(=O)O)C(=O)N[C@@H](CO)C(=O)N[C@@H](C)C(=O)N[C@@H](CC(=O)O)C(=O)N[C@@H](C)C(=O)N[C@@H](CCC(=O)O)C(=O)N[C@@H](CCC(=O)O)C(=O)N[C@@H](CC(=O)O)C(=O)N[C@@H](CC(=O)O)C(=O)N[C@@H](CO)C(=O)N[C@@H](CC(=O)O)C(=O)N[C@H](C(=O)N[C@@H](Cc1c[nH]c2ccccc12)C(=O)N[C@@H](Cc1c[nH]c2ccccc12)C(=O)NCC(N)=O)C(C)C [Peptide 11] (Ac-DSADAEEDDSDVWWG-NH2) | 5030

Q: GET Ki where system = Sushi domains (SD1/2) protein and item = CC[C@H](C)[C@H](NC(=O)[C@H](Cc1ccccc1)NC(=O)[C@H](CCC(=O)O)NC(=O)[C@@H](NC(=O)[C@H](CCC(=O)O)NC(C)=O)[C@@H](C)O)C(=O)N[C@@H](C)C(=O)N[C@@H](Cc1c[nH]c2ccccc12)C(=O)NCC(=O)N1CCC[C@H]1C(=O)N[C@H](C(=O)NCC(=O)N[C@@H](CC(=O)O)C(=O)N[C@@H](CCC(=O)O)C(=O)N[C@@H](CC(=O)O)C(=O)N[C@@H](C)C(N)=O)[C@@H](C)O
A: 39

Q: GET Ki where system = Sushi domains (SD1/2) protein and item = CC[C@H](C)[C@H](NC(=O)[C@H](C)NC(=O)[C@H](Cc1c[nH]c2ccccc12)NC(C)=O)C(=O)N[C@H](C(=O)N[C@@H](Cc1c[nH]c2ccccc12)C(=O)NCC(=O)N1CCC[C@H]1C(=O)N[C@H](C(=O)N[C@H](C(=O)N[C@@H](CO)C(=O)N[C@@H](CCCNC(=N)N)C(=O)N[C@@H](CCC(=O)O)C(=O)N[C@@H](CC(=O)O)C(=O)NCC(=O)NCC(N)=O)C(C)C)[C@@H](C)O)C(C)C (Ac-WAIVWGPTVSREDGG-NH2)
A: 1350

Q: GET Ki where system = Sushi domains (SD1/2) protein and item = CC[C@H](C)[C@H](NC(=O)[C@H](C)NC(C)=O)C(=O)N[C@H](C(=O)N[C@@H](Cc1c[nH]c2ccccc12)C(=O)NCC(=O)N1CCC[C@H]1C(=O)N[C@H](C(=O)N[C@H](C(=O)N[C@@H](CO)C(=O)N[C@@H](CCCNC(=N)N)C(=O)N[C@@H](CCC(=O)O)C(=O)N[C@@H](CC(=O)O)C(=O)NCC(=O)NCC(=O)N[C@@H](CC(=O)O)C(N)=O)C(C)C)[C@@H](C)O)C(C)C (Ac-AIVWGPTVSREDGGD-NH2)
A: 637

Q: GET Ki where system = Sushi domains (SD1/2) protein and item = CC[C@H](C)[C@H](NC(=O)[C@H](Cc1ccccc1)NC(=O)[C@H](CCC(=O)O)NC(=O)[C@@H](NC(=O)[C@H](CCC(=O)O)NC(=O)[C@@H](NC(=O)[C@@H](NC(C)=O)[C@@H](C)O)[C@@H](C)O)[C@@H](C)O)C(=O)N[C@@H](C)C(=O)N[C@@H](Cc1c[nH]c2ccccc12)C(=O)NCC(=O)N1CCC[C@H]1C(=O)N[C@H](C(=O)NCC(=O)N[C@@H](CC(=O)O)C(=O)N[C@@H](CCC(=O)O)C(N)=O)[C@@H](C)O (Ac-TTETEFIAWGPTGDE-NH2)
A: 73

Q: GET Ki where system = Sushi domains (SD1/2) protein and item = CC(=O)N[C@@H](CO)C(=O)N[C@@H](C)C(=O)N[C@@H](CC(=O)O)C(=O)N[C@@H](C)C(=O)N[C@@H](CCC(=O)O)C(=O)N[C@@H](CCC(=O)O)C(=O)N[C@@H](CC(=O)O)C(=O)N[C@@H](CC(=O)O)C(=O)N[C@@H](CO)C(=O)N[C@@H](CC(=O)O)C(=O)N[C@H](C(=O)N[C@@H](Cc1c[nH]c2ccccc12)C(=O)N[C@@H](Cc1c[nH]c2ccccc12)C(=O)NCC(=O)NCC(N)=O)C(C)C [Peptide 12] (Ac-SADAEEDDSDVWWGG-NH2)
A: 1300

Q: GET Ki where system = Sushi domains (SD1/2) protein and item = CC(=O)N[C@@H](CC(=O)O)C(=O)N[C@@H](CC(=O)O)C(=O)N[C@@H](CO)C(=O)N[C@@H](CC(=O)O)C(=O)N[C@H](C(=O)N[C@@H](Cc1c[nH]c2ccccc12)C(=O)N[C@@H](Cc1c[nH]c2ccccc12)C(=O)NCC(=O)NCC(N)=O)C(C)C (Ac-DDSDVWWGG-NH2)
A: 2630

Q: GET Ki where system = Sushi domains (SD1/2) protein and item = CC(=O)N[C@@H](C)C(=O)N[C@@H](CC(=O)O)C(=O)N[C@@H](C)C(=O)N[C@@H](CCC(=O)O)C(=O)N[C@@H](CCC(=O)O)C(=O)N[C@@H](CC(=O)O)C(=O)N[C@@H](CC(=O)O)C(=O)N[C@@H](CO)C(=O)N[C@@H](CC(=O)O)C(=O)N[C@H](C(=O)N[C@@H](Cc1c[nH]c2ccccc12)C(=O)N[C@@H](Cc1c[nH]c2ccccc12)C(=O)NCC(=O)NCC(=O)N[C@@H](C)C(N)=O)C(C)C (Ac-ADAEEDDSDVWWGGA-NH2)
A: 1530

Q: GET Ki where system = Sushi domains (SD1/2) protein and item = CC(=O)N[C@@H](CC(=O)O)C(=O)N[C@@H](CC(=O)O)C(=O)N[C@@H](CO)C(=O)N[C@@H](CC(=O)O)C(=O)N[C@H](C(=O)N[C@@H](Cc1c[nH]c2ccccc12)C(=O)N[C@@H](Cc1c[nH]c2ccccc12)C(=O)NCC(=O)NCC(=O)N[C@@H](C)C(=O)N[C@@H](CC(=O)O)C(=O)N[C@H](C(=O)N[C@@H](CC(=O)O)C(=O)N[C@@H](Cc1ccc(O)cc1)C(=O)N[C@@H](C)C(=O)N[C@@H](CC(=O)O)C(=O)NCC(N)=O)[C@@H](C)O)C(C)C (Ac-DDSDVWWGGADTDYADG-NH2)
A: 687
